- runDescription: Stability in human fecal homogenate
- Format: in vitro ADME
- protocolConditions: 20% fecal homogenate (supernatant), pH 6.8, 20% human fecal homogenate, anaerobic, 37° C., read-out: t½: Human Feces anaerobic (converted)
Bridge positions count the residues as written; N and C are the ends. Square brackets hold non-standard residues; d marks the D form. Peptide text beside a SMILES is read from it. Trp(7-OMe) = COc1cccc2c(C[C@H](N)C(=O)O)c[nH]c12; 2Nal = N[C@@H](Cc1ccc2ccccc2c1)C(=O)O; AEF = NCCOc1ccc(C[C@H](N)C(=O)O)cc1; Cit = NC(=O)NCCC[C@H](N)C(=O)O; Pen = CC(C)(S)[C@H](N)C(=O)O; αMeK = C[C@](N)(CCCCN)C(=O)O
Assignment: determine reported half-life at 20 μM for the given compounds.

>  <compound>
COc1cccc2c(C[C@@H]3NC(=O)[C@H]([C@@H](C)O)NC(=O)[C@H](CC(N)=O)NC(=O)[C@@H](NC(C)=O)C(C)(C)SSC(C)(C)[C@@H](C(=O)N[C@@H](Cc4ccc(OCCN)cc4)C(=O)N[C@@H](Cc4ccc5ccccc5c4)C(=O)N[C@@](C)(CCCCN)C(=O)N[C@@H](CCCCNC(C)=O)C(=O)N[C@@H](CC(N)=O)C(=O)N[C@H](CCCCN)C(N)=O)NC(=O)[C@H](CCCNC(N)=O)NC3=O)c[nH]c12 [compound 300] (Ac-[Pen]NT[Trp(7-OMe)][Cit][Pen][AEF][2Nal][αMeK]K(Ac)N[dK]-NH2; disulfide 1-6)

>  <readoutKind>
half-life at 20 μM

>  <endpointResult>
> 24 h

$$$$

Next, consider the following compound.
IN: Supply measured half-life at 20 μM of COc1cccc2c(C[C@@H]3NC(=O)[C@H]([C@@H](C)O)NC(=O)[C@H](CC(N)=O)NC(=O)[C@@H](NC(C)=O)C(C)(C)SSC(C)(C)[C@@H](C(=O)N[C@@H](Cc4ccc(OCCN)cc4)C(=O)N[C@@H](Cc4ccc5ccccc5c4)C(=O)N[C@@](C)(CCCCN)C(=O)N[C@@H](CCCCNC(C)=O)C(=O)N[C@@H](CC(N)=O)C(=O)N[C@H](CCCCN)C(N)=O)NC(=O)[C@H](CCC(N)=O)NC3=O)c[nH]c12 in your reply.
OUT: > 24 h
